Target or system: Serine/threonine-protein kinase 4 (Homo sapiens) (UniProt Q13043);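 note: mean inhibition of MST1, part of the GSK PKIS dataset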
Sequence (Q13043 whole entry): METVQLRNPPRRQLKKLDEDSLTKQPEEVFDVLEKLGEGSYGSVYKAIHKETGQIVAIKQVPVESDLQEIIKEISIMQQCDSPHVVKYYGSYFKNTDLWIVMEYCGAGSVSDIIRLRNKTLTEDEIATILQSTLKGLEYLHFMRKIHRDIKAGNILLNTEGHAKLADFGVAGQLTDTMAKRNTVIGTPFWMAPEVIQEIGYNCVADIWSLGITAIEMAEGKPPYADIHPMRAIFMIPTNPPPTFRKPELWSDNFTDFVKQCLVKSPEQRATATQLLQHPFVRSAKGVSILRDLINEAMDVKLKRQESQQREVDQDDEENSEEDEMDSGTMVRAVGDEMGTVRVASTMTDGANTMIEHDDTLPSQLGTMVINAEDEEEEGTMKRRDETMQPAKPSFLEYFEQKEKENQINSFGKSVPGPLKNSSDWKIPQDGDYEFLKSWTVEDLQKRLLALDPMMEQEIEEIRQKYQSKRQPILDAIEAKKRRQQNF
Conditions used: at 1 µM
Endpoint: inhibition (%)
One number for each entry, in %.

Example entries begin here.
stdin: Can you look up the measured inhibition of Cc1ccc(C(=O)NC(C)C)cc1-c1ccc(C(=O)NCC2CC2)cc1 for me?
stdout: -3.63

stdin: Next record, please: NCc1ccc(-n2c(-c3nonc3N)nc3cnccc32)cc1
stdout: 19.6

stdin: Quick one: N#Cc1ccc(Oc2nccc(-c3c(-c4ccc(F)cc4)ncn3C3CCNCC3)n2)cc1
stdout: 4.07

stdin: Queued: COc1ccc2cc(-c3c(-c4ccncc4)nc(-c4ccc(S(C)(=O)=O)cc4C)n3C)ccc2c1
stdout: 8.72

stdin: Continue with Fc1ccc(-c2nc3n(c2-c2ccncc2)CCS3)cc1
stdout: 4.41

stdin: // same read-out, input: O=C1Nc2ccccc2/C1=C/Nc1ccc(-n2cncn2)cc1
stdout: 54.4

Below are 2 molecules. Give each one its inhibition.
1. COc1ccc(C2=C(N3CCc4ccccc43)C(=O)NC2=O)cc1
2. CN(C)CCOc1ccc(-c2cc(-c3ccc4c(c3)CCC4=NO)c(-c3ccncc3)o2)cc1

stdout:
1. 7.64
2. 0.8

###

Target or system: Dual specificity tyrosine-phosphorylation-regulated kinase 1A (Homo sapiens) (UniProt Q13627)
Conditions used: at 1 µM
Description: GSK_PKIS: DYRK1A mean inhibition at 1 uM [Nanosyn]
inhibition of 5% or higher: true. Under 5%: false.

stdin: Check this compound for inhibition at or above 5%: Nc1nccc(-c2c(-c3ccc(F)cc3)ncn2C2CCC(O)CC2)n1 (stereo not given)
stdout: true

stdin: Now the same for O=C(Nc1ccc(Oc2ccc3[nH]c(NC(=O)c4ccccc4)nc3c2)cc1)Nc1cc(C(F)(F)F)ccc1F
stdout: false

stdin: Please give the result for COc1cc(Nc2ncc3c(C)nc(-c4cccc(C(F)(F)F)c4)n3n2)cc(OC)c1OC too.
stdout: true

stdin: Moving on to CS(=O)(=O)CCNCc1cc(-c2cc3c(Nc4ccc(OCc5cccc(F)c5)c(Cl)c4)ncnc3s2)cs1
stdout: false

# next compound below
stdin: Decide: is the reported value of inhibition for COc1ccc2ncn(-c3cc(O[C@H](C)c4ccccc4Cl)c(C(N)=O)s3)c2c1 equal to or greater than 5%?
stdout: false

###

Test system: Proto-oncogene tyrosine-protein kinase receptor Ret (Homo sapiens), P07949 [V804L]
Sequence (P07949 whole entry V804L): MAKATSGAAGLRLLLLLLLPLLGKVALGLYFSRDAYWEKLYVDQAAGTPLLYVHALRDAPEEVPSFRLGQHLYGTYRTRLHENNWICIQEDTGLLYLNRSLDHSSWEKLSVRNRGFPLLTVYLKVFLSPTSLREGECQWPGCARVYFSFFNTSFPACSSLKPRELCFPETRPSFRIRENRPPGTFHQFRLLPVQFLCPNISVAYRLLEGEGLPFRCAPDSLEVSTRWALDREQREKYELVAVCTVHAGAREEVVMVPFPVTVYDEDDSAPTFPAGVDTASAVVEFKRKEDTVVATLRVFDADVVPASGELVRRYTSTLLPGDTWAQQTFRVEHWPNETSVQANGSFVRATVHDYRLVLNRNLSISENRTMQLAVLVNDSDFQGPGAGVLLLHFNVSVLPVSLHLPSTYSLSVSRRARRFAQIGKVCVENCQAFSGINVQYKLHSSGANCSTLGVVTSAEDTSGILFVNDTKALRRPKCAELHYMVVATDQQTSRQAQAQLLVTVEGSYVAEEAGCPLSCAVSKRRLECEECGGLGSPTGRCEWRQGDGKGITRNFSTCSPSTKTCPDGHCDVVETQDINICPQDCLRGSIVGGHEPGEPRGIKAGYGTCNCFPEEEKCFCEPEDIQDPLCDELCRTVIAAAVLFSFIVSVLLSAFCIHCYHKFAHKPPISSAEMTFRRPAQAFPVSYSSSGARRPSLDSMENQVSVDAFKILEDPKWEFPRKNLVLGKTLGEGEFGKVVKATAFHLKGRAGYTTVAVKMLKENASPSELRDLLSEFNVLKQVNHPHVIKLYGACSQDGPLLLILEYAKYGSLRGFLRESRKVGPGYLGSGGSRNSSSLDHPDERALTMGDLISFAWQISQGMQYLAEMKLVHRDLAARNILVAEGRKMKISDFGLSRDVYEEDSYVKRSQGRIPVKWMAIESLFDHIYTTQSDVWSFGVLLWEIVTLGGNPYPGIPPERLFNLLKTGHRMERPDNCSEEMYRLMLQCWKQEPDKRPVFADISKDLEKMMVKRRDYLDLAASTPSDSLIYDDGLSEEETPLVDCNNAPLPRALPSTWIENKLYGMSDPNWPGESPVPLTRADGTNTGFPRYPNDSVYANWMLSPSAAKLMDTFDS
Conditions used: at 0.1 µM
Endpoint: inhibition (%)
Numbers only, in %.

Example entries and their recorded answers appear below.
stdin: Which inhibition value belongs to COc1cc(C)c(N(C)C(=O)CN(C)C)cc1Nc1nc(Nc2cccc(F)c2C(N)=O)c2cc[nH]c2n1 ?
stdout: 8.2

stdin: O=C(Nc1n[nH]c2nc(-c3ccco3)ccc12)C1CC1 ?
stdout: 4.51

stdin: Also need COC(=O)Nc1nc2ccc(Sc3ccc(NC(=O)Nc4cc(C(F)(F)F)ccc4F)cc3)cc2[nH]1 , thanks.
stdout: 9.72

stdin: Param item: O=C(Nc1ccc(Oc2ccc3[nH]c(NC(=O)c4ccccc4)nc3c2)cc1)Nc1cc(C(F)(F)F)ccc1F
stdout: 25.4

stdin: And Fc1ccc(-c2ncn(C3CCNCC3)c2-c2ccnc(Oc3ccc(F)c(F)c3)n2)cc1 ?
stdout: 4.74

stdin: NC(=O)c1ccc(Oc2nccc(-c3c(-c4ccc(F)cc4)ncn3C3CCNCC3)n2)cc1 ?
stdout: 2.2

Please give inhibition for each item listed below.
1. Cc1ccc(NC(=O)c2ccoc2)cc1-c1ccc(C(=O)NCC2CC2)cc1
2. COc1ccc(C2=C(N3CCc4ccccc43)C(=O)NC2=O)cc1
3. CCC(=O)Nc1ccc(C)c(-c2ccc(C(=O)NCC3CC3)cc2)c1
4. O=C(Nc1n[nH]c2nc(-c3ccc(O)cc3)c(Br)cc12)C1CC1

stdout:
[1.71, 5.21, 1.64, 5.98]
